B1: FAM189A2 (parent)
chain: NLAGFILGCQGAQFVSSVPRCDLV

- Variants of: B1
- assay info: protein stability index of a GFP-peptide fusion (GPS, HEK-293T) (PSI 1-6); higher = more stable;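 note: lentivirally expressed fusions sorted by FACS into six bins by GFP to DsRed ratio, PSI derived from sequencing read proportions per bin multiplied by bin number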
- test conditions: c terminus: a fixed tail appended

# variant notation, protein stability index
measured = [
    ("L2F", 2.65),
    ("A12D", 4.07),
    ("D22I", 2.13),
    ("G4Y", 4.24),
    ("A3T", 3.18),
    ("L23N", 2.75),
    ("C9V", 2.04),
    ("L23K", 1.94),
    ("S16L", 2.34),
    ("I6E", 1.49),
    ("L2E", 2.13),
    ("V24T", 1.53),
    ("F14H", 1.87),
    ("R20M", 2.91),
    ("D22G", 1.75),
    ("A12L", 2.95),
    ("C9A", 2.62),
    ("V18C", 2.83),
    ("A3Q", 1.03),
    ("Q10P", 4.29),
    ("I6F", 2.78),
    ("L23P", 2.98),
]

Values compiled from the supplement of paper PMC10567573.
